procedureDetails: MITF-driven TRPM1 luciferase induction in melanoma cells – cell-based, SK-MEL-5, single point, primary screen (AID 588334);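 further: 0% = neutral control wells and 100% = parthenolide positive control wells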
conditionSummary: SK-MEL-5 TRPM1-promoter luciferase, 24 h; at 12.5 µM; % of positive control, neutral wells = 0
Hit rate of the full screen: of about 300,000 compounds, about 2,300 (0.77%) were called active.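 How the source made its calls: active means mean activation of at least 80% with every replicate also reaching 80%; inconclusive means mean reaches 80% but some replicate falls short; inactive means the rest.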 The sample holds actives, similar compounds and a random draw of the others, so the mix is not that of the screen.
Lab note: assign the record to one of YES for active, NO for inactive

Would you please look over these solved cases?
>>> print(df.to_string())
                    compoundstructurestring  assignedlabel
0  Cc1ccc(C(=O)Nc2ccccc2-c2ccccc2)cc1S(=O)(=O)Nc1ccccc1             NO
1            Nc1ccc(-c2nnc(-c3ccccc3)o2)cc1             NO
2            COC(=O)CSc1nc(C)c2ccc(OC)cc2n1             NO
3  Nc1ccc(-c2nnc(-c3ccc(-c4ccccc4)cc3)o2)cc1            YES
4           COc1ccc2nc(SCc3ccccc3)nc(C)c2c1            YES

Assay outcome for CCCN(CCC)S(=O)(=O)c1cc2c(cc1Br)CCN2C(=O)CC : what was it?
NO

====

procedureDetails: MITF-driven TRPM1 luciferase induction in melanoma cells – cell-based, SK-MEL-5, single point, primary screen (AID 588334);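 further: 0% = neutral control wells and 100% = parthenolide positive control wells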
conditionSummary: SK-MEL-5 TRPM1-promoter luciferase, 24 h; at 12.5 µM; % of positive control, neutral wells = 0
Screen size: about 300,000 compounds; about 2,300 (0.77%) were called active.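 How the source made its calls: active means mean activation of at least 80% with every replicate also reaching 80%; inconclusive means mean reaches 80% but some replicate falls short; inactive means the rest.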 Only a selection was taken, and actives are over-represented in it overall.
Lab note: assign the record to one of active, inactive

Would you please look over these solved cases?
>>> df
                                   molecule  assignedlabel
0           Cc1cccc(C=CC(=O)c2ccc(Cl)cc2)c1       inactive
1         Fc1cccc(Cl)c1CSc1ccc(-c2ccco2)nn1         active
2  O=C(COC(=O)c1ccc2c(c1)OCCO2)NCc1ccccc1Cl       inactive

Next, consider the following molecule.
Assay outcome for O=C(NCCC1=CCCCC1)C1CCN(Cc2cnn(-c3ccccc3)c2-n2cccc2)CC1 : what was it?
inactive

====

Listed next: entries and their corresponding activation.
procedureDetails: MITF-driven TRPM1 luciferase induction in melanoma cells – cell-based, SK-MEL-5, single point, primary screen (AID 588334);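 further: 0% = neutral control wells and 100% = parthenolide positive control wells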
conditionSummary: SK-MEL-5 TRPM1-promoter luciferase, 24 h; at 12.5 µM; hits give high values; % of positive control, neutral wells = 0
In all, about 300,000 compounds went through this assay and about 2,300 (0.77%) were called active. Shown is part of a subset that was picked to be rich in actives.
The reply should contain only the number, in %.

Reference set, count: 2
>>> print(df.to_string())
                                   compound  unitstext  valuereported
0            O=[N+]([O-])c1cccc(C2=NCCS2)c1          %          -11.6
1  CNN/C(N=Cc1ccc([N+](=O)[O-])s1)=N\S(=O)(=O)c1cc(C)c(Cl)cc1SCc1ccccc1          %          -22.7

Reported activation, compound N#CC(=C1SC=CS1)c1nc(-c2ccccc2)cs1 : ____
47.6

Reported activation, compound O=C(c1noc2c1CCCC2)N1CCc2ccccc2C1 : ____
127

Reported activation, compound Cc1ccc(C(=O)O)c(NC=O)c1OCc1ccccc1 : ____
11

Reported activation, compound Cn1c(-c2ccc(F)cc2)cc2onc(-c3ccccc3Cl)c2c1=O : ____
76.3

Reported activation, compound O=C(CNC(=O)c1cc(S(=O)(=O)N2CCOCC2)ccc1N1CCCC1)Nc1ccc(F)c(F)c1 : ____
-3.17

Reported activation, compound O=Cc1ccc(Oc2cccc(C(F)(F)F)c2)nc1 : ____
2.89

====

procedureDetails: MITF-driven TRPM1 luciferase induction in melanoma cells – cell-based, SK-MEL-5, single point, primary screen (AID 588334);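 further: 0% = neutral control wells and 100% = parthenolide positive control wells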
conditionSummary: SK-MEL-5 TRPM1-promoter luciferase, 24 h; at 12.5 µM; hits give high values; % of positive control, neutral wells = 0
The whole screen tested about 300,000 compounds, of which about 2,300 (0.77%) were called active. For the sample, actives were picked, then their nearest neighbours and some compounds at random.
property: activation (%)
The reply should contain only the number, in %.

Reference set, count: 4
>>> print(df.to_string())
                                   compound    property  valuereported
0          Cc1ccn(-c2cccc(-n3ccc(C)n3)n2)n1  activation            119
1  CCOc1ccc(/C=C(/C#N)c2nnc(N3CCOCC3)n2-c2ccccc2)cc1OC  activation           -2.3
2         Cc1ccc(-c2nc(-c3ccncc3)no2)c(C)c1  activation           70.8
3  COc1ccc(S(=O)(=O)N2CCc3ccccc32)cc1C(=O)Nc1cc(S(C)(=O)=O)ccc1Cl  activation            -34

Would you kindly look at the next entry?
Reported activation, compound CCCCn1nc(C(=O)N2CCc3ccccc32)c2ccccc2c1=O : ____
-15.9

====

procedureDetails: MITF-driven TRPM1 luciferase induction in melanoma cells – cell-based, SK-MEL-5, single point, primary screen (AID 588334);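 further: 0% = neutral control wells and 100% = parthenolide positive control wells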
conditionSummary: SK-MEL-5 TRPM1-promoter luciferase, 24 h; at 12.5 µM; hits give high values; % of positive control, neutral wells = 0
The campaign covered roughly 300,000 compounds. About 2,300 (0.77%) were called active. This excerpt belongs to a sample that is enriched for actives.
Decision: activation >= 10% yields 1, all other cases yield 0.

>>> print(df.to_string())
          compoundstructurestring  assignedlabel
0  C/C(=N\Nc1ccc(Cl)nn1)c1ccccc1O              0

Determine whether this compound has activation no lower than 10%: COc1cccc(NC(=O)c2ccccc2SC)c1
0

Determine whether this compound has activation no lower than 10%: CC(=O)c1cnc(-c2ccccc2)s1
1

Determine whether this compound has activation no lower than 10%: Cc1cccc(NC(=O)Nc2cccc(Oc3c(F)c(F)c(F)c(F)c3F)c2)c1
1

Determine whether this compound has activation no lower than 10%: N#CCc1c[nH]c2ccc([N+](=O)[O-])cc12
1

Determine whether this compound has activation no lower than 10%: C=CC[C@@H](Cc1ccc(F)cc1)C(=O)OC[C@H]1CCCN1C(=O)[C@H](CC=C)CC(=O)N(CCO)Cc1ccccc1
1

====

procedureDetails: MITF-driven TRPM1 luciferase induction in melanoma cells – cell-based, SK-MEL-5, single point, primary screen (AID 588334);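 further: 0% = neutral control wells and 100% = parthenolide positive control wells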
conditionSummary: SK-MEL-5 TRPM1-promoter luciferase, 24 h; at 12.5 µM; hits give high values; % of positive control, neutral wells = 0
Out of some 300,000 compounds screened, about 2,300 (0.77%) were called active. The list comes from a sample in which actives are over-represented; it also holds close analogues and randomly drawn compounds.
property: activation

Reference set, count: 3
>>> df
                                   compound    property     valuereported
0           Cc1occc1C(=O)Nc1nnc(C2CCCCC2)s1  activation    91.3% (active)
1  CC(C)c1ccc(C=NNc2ccc([N+](=O)[O-])cn2)cc1  activation  16.4% (inactive)
2  CC(C(=O)N1CCc2ccccc21)N(C)CC(=O)Nc1ccc(F)cc1 (stereo unspecified)  activation  13.5% (inactive)

Reported activation, compound Cc1occc1C(=O)Nc1nnc(-c2ccncc2)s1 : ____
23% (inactive)

Reported activation, compound O=C(Nc1nnc(C2CC2)s1)c1cc(Cl)sc1Cl : ____
6.39% (inactive)

Reported activation, compound CC(=O)c1sc(NC(=O)CCCOc2ccccc2C)nc1C : ____
-1.04% (inactive)

====

procedureDetails: MITF-driven TRPM1 luciferase induction in melanoma cells – cell-based, SK-MEL-5, single point, primary screen (AID 588334);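 further: 0% = neutral control wells and 100% = parthenolide positive control wells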
conditionSummary: SK-MEL-5 TRPM1-promoter luciferase, 24 h; at 12.5 µM; % of positive control, neutral wells = 0
About 2,300 (0.77%) of roughly 300,000 compounds were called active.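 Rule for the calls: active = mean activation of at least 80% with every replicate also reaching 80%; inconclusive = mean reaches 80% but some replicate falls short; inactive = the rest.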 The list comes from a sample in which actives are over-represented; it also holds close analogues and randomly drawn compounds.
Lab note: assign the record to one of yes (1) (active), no (0) (inactive)

Would you please look over these solved cases?
>>> df
                                   molecule  assignedlabel
0  COc1ccc([C@H]2CC(=O)C=C(/C=C/c3ccc(Cl)cc3)C2)cc1         no (0)
1  CC(C)COC(=O)c1ccc(NC(=O)C2C3C=CC(C3)C2C(=O)O)cc1 (stereo not given)        yes (1)
2  COc1ccc([C@H]2CC(=O)C=C(/C=C/c3ccccc3)C2)cc1        yes (1)

Assay outcome for COc1ccc([C@H]2CC(=O)C=C(c3ccc(C)cc3)C2)cc1 : what was it?
no (0)

Assay outcome for COc1ccccc1-c1nnc2n1N=C(c1ccc(OC(F)F)c(OCC3CC3)c1)CS2 : what was it?
no (0)
